Can you tell me self-cleavage for the items I'm about to list?
B1: Twister Ribozyme (parent)
chain: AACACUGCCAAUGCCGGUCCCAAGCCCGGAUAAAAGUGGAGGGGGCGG

variants of: B1; experiment: self-cleavage, relative activity (ratio to wild type); higher = more cleavage; co-transcriptional
Give bare numbers.

Would you please look over these solved cases?
[[record]]
mutation_name = "G39U A40G"
recorded_measurement = 0.128

[[record]]
mutation_name = "U6C C20U"
recorded_measurement = 0.169

[[record]]
mutation_name = "A35C G42U"
recorded_measurement = 0.415

[[record]]
mutation_name = "U12A G39C"
recorded_measurement = 0.127

[[record]]
mutation_name = "C19G A35C"
recorded_measurement = 0.393

[[record]]
mutation_name = "C9G C14U"
recorded_measurement = 0.624


// each variant listed below needs its self-cleavage
1. C15U U31C
2. A11U G41U
3. C19U G45U

Result:
1: 0.923; 2: 0.889; 3: 0.563

Give self-cleavage for each listed item.
1. A4C U18A
2. C9G A23U
3. C3A G7U
4. A2U A32C
5. C14A G28U
6. G17C G48C
7. G16C G39A

Result:
1. 0.0406
2. 0.0839
3. 0.0571
4. 0.581
5. 0.854
6. 0.152
7. 0.28

For each of the variants below, state self-cleavage.
1. C20G U37C
2. U31C G36A
3. G7C C14U
4. C20A A34G
5. C20A U31A
6. C5A C25G
7. U18G G48A
8. U18A A40C

Result:
[0.0961, 0.725, 0.0373, 0.104, 0.14, 0.0605, 0.0606, 0.133]

Below is a list of variants. For each, state its recorded self-cleavage.
1. C15G C27U
2. G38C G39U
3. C19A A40G
4. A30U G38C
5. A11G C19U
6. G17U G47U

Result:
[0.094, 0.164, 0.124, 0.88, 0.792, 0.181]

Source of measurements: the RNAGym collection of RNA variant scans (doi:10.7554/elife.80360)
